The following binders are shown together with reported IC50 values.
Biological target: T1, cMetSEMA-567His8 (human, UniProt P08581 25-567, limits assumed)
T1 construct: In the TR-FRET assay detected by anti-6xhis Europium3+; also called cMetSEMAHis; SEMA domain of c-Met; not shown: C-terminal His tag; the text says His9, the construct name says His8
T1 sequence (P08581 25-567 limits assumed, form in doubt): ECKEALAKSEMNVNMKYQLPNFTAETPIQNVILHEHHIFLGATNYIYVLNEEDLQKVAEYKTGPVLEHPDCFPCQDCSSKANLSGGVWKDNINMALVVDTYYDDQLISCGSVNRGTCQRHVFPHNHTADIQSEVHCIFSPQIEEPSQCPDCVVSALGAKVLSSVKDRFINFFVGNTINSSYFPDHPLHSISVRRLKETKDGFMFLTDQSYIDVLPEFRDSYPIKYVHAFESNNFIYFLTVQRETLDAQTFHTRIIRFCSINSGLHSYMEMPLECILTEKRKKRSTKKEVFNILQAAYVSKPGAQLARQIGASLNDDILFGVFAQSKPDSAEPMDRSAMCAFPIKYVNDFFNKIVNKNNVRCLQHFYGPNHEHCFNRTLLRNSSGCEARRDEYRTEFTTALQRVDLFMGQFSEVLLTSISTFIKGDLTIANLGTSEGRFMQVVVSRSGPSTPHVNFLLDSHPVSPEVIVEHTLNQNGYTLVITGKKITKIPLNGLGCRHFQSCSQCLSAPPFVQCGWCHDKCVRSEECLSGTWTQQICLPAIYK
Assay: TR-FRET; displacement of AlexaFluor-647-HGF from cMetSEMA-567His8
Quick note: give the figure in µg/mL, leave out the unit.

Would you please look over these solved cases?
binder	IC50 (µg/mL)
IgG1-1016-022 (antibody, V domains shown, also called TH1016-022; PC1016-022) VH: QVQLVESGGGVVQPGRSLRLSCAASGFTFSSYAMHWVRQAPGKGLEWVAVISYDGSNKYYADSVKGRFTISRDNSKNTLYLQMNSLRAEDTAVYYCARELLWFGELWGYFDLWGRGTLVTVSS VL: DIQMTQSPSSVSASVGDRVTITCRASQGISSWLAWYQHKPGKAPKLLIYAASSLQSGVPSRFSGSGSGTDFTLTISSLQPEDFATYYCQEASSFTWTFGQGTKVEIK	0.37
anti-c-Met HuMab 006 (IgG1) (antibody, V domains shown, also called TH1016-006; PC1016-006) VH: QVQLVQSGAEVKKPGSSVKVSCKASGGTFSSFGIGWVRQAPGQGLEWMGRIFPILGTANYAQMFQGRVTITADKSTSTAYMELTSLRSEDTAVYYCARDVGYDSADAFDIWGQGTMVTVSS VL: DIQMTQSPSSLSASVGDRVTITCRASQGISSWLAWYQQKPEKAPKSLIYAASSLQSGVPSRFSGSGSGTDFTLTISSLQPEDFATYYCQQYNSYPPTFGQGTKVEIK	0.16

query: What does the data say about its IC50? Entry: IgG1-1016-058 (antibody, V domains shown, also called IgG1-058; TH1016-058) VH: EVQLVESGGGLVKPGGSLKLSCAASGFTFSDYYMYWVRQTPEKRLEWVATISDDGSYTYYPDSVKGRFTISRDNAKNNLYLQMSSLKSEDTAMYYCAREGLYYYGSGSYYNQDYWGQGTLVTVSS VL: AIQLTQSPSSLSASVGDRVTITCRASQGLSSALAWYRQKPGKAPKLLIYDASSLESGVPSRFSGSGSGTDFTLTISSLQPEDFATYYCQQFTSYPQITFGQGTRLEIK
result: 0.15
